- Tested on: biotinyl-Met-oxazolone
- method summary: self-aminoacylation, catalytic enhancement (BMO) (fold over background); higher = more active; k-Seq, kA / k0A0; sequences stand for … in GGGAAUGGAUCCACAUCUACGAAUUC…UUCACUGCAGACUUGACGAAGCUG
Variants at the floor of the assay were thinned out.
Use Met when the recorded self-aminoacylation is no lower than 3; use Not met when it is lower.

Req: Decide: self-aminoacylation of CUAAUUCAAACAAUCGGUCAG [Fam1A.1 aminoacylation ribozyme variant] >= 3?
Resp: Not met

Req: // query: AAGUUUGCUAAUAGGCGUAAG [Fam3.1 aminoacylation ribozyme variant]
Resp: Not met

Req: Same question for GUUACCCUGAUCAUCGAGUGA [Fam2.1 aminoacylation ribozyme variant] please.
Resp: Met

Req: Would you kindly repeat that for AUUAUCCUGGUCAUCGAGUGC [Fam2.1 aminoacylation ribozyme variant] ?
Resp: Not met

Req: Same thing, different sequence: CUACUUCAAAAAAUCGGUCUG [Fam1A.1 aminoacylation ribozyme variant]
Resp: Not met

Req: Also AAGUUUGCUAAUAGUCGAUAG [Fam3.1 aminoacylation ribozyme variant] , if possible.
Resp: Not met

Req: Follow-up item: AUUACCUUGGUCAUCGCGUGA [Fam2.1 aminoacylation ribozyme variant]
Resp: Met

Req: Do the same for ACACACUUCAAGCAAUGGGUC [Fam1B.1 aminoacylation ribozyme variant] please
Resp: Not met

Req: Would you kindly repeat that for AUUACCCUGGUAAUCGAGUCA [Fam2.1 aminoacylation ribozyme variant] ?
Resp: Not met

Req: What do we get for AUUACCCUUGUCAUCGAGUGU [Fam2.1 aminoacylation ribozyme variant] ?
Resp: Not met

Req: Another sequence to check: CUAAUUCUAACAAUCGGUCUG [Fam1A.1 aminoacylation ribozyme variant]
Resp: Not met

Req: One more sequence: AACUUUUCUAAUAGUCGCAAG [Fam3.1 aminoacylation ribozyme variant]
Resp: Not met

Req: Next: AAGUCUGCUAAUAGUCGCAGG [Fam3.1 aminoacylation ribozyme variant]
Resp: Not met

Req: Likewise for CCACAAUUCAAGCAAUCGGUC [Fam1B.1 aminoacylation ribozyme variant] ?
Resp: Not met

Req: Would you kindly repeat that for CUACUUCAAACAAUAGGGCUG [Fam1A.1 aminoacylation ribozyme variant] ?
Resp: Not met

Req: Cool, now AUUCACCAAGGUAAUCGGGUG [Fam2.2 aminoacylation ribozyme variant]
Resp: Met

Req: Same for AUUACCCAGGUCAUGGAGUGA [Fam2.1 aminoacylation ribozyme variant]
Resp: Met

Req: Proceed to AUUAACCUAGGUCCUCGGGUG [Fam2.2 aminoacylation ribozyme variant]
Resp: Met

###

- System: biotinyl-Met-oxazolone
- method summary: self-aminoacylation, catalytic enhancement (BMO) (fold over background); higher = more active; k-Seq, kA / k0A0; sequences stand for … in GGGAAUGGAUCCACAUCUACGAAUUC…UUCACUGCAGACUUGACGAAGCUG
Variants at the floor of the assay were thinned out.
The following ranges of self-aminoacylation define the classes used here: group A (below 0.7), group B (0.7 to below 6), group C (6 or more)

Req: Pick a category. Item: AUAACCCUGGUCAUUGAGUGA [Fam2.1 aminoacylation ribozyme variant]
Resp: group C

Req: Subsequent entry: CUACUUCAAACAAUCGGACUC [Fam1A.1 aminoacylation ribozyme variant]
Resp: group A

Req: One more sequence: CUACUUCAAAUCAUCGGUCUG [Fam1A.1 aminoacylation ribozyme variant]
Resp: group B

Req: # repeat for CUACUACAAACAAUAGGUCUG [Fam1A.1 aminoacylation ribozyme variant]
Resp: group A

Req: Also, ACACACUUCAAGCAAUAGGUC [Fam1B.1 aminoacylation ribozyme variant] please.
Resp: group B

Req: Then what about the sequence AUUGCCCUGGGCAUCGAGUGA [Fam2.1 aminoacylation ribozyme variant] ?
Resp: group C

Req: Now consider CCACACUUCAAGCAAUUGGAC [Fam1B.1 aminoacylation ribozyme variant] .
Resp: group A

Req: Same read-out for CCACACUUCAAGCAUACGGUC [Fam1B.1 aminoacylation ribozyme variant] ?
Resp: group A

Req: Next record, please: CUUCCCCUAGGUCAUCGGGUG [Fam2.2 aminoacylation ribozyme variant]
Resp: group C

Req: AAGUUUGCUCAUACUCGCAAG [Fam3.1 aminoacylation ribozyme variant] , same question.
Resp: group B

Req: Same thing, different sequence: AUUACCCUGGUCAUCGAGUAG [Fam2.1 aminoacylation ribozyme variant]
Resp: group B

Req: Please answer likewise for CCAUACUUCAAGCAAUAGGUC [Fam1B.1 aminoacylation ribozyme variant]
Resp: group A

Req: Same thing, different sequence: CUUCACCUAGAUCAUCGGGUG [Fam2.2 aminoacylation ribozyme variant]
Resp: group B

Req: Now this one: AUUAUCCUGGUCAUCGGGUGA [Fam2.1 aminoacylation ribozyme variant]
Resp: group C

Req: Then this sequence: AUGACCCUGGUUAUCGAGUGA [Fam2.1 aminoacylation ribozyme variant]
Resp: group C

Req: Ok, now CUACUUCAUACAAUCGGUCAG [Fam1A.1 aminoacylation ribozyme variant]
Resp: group A

The measurements presented in this section are drawn from the supplement of paper PMC9233669.
